# Lookup of reported CC50 keyed by entry
# System: HepG2
# Assay name: Cell cytotoxicity assay, HEPG2
# Assay type: cell-based
# Reported conditions: HepG2 cells, 5 days at 37° C., XTT dye

{"Compound": "Nc1ccn([C@@H]2CO[C@H](COP(=O)(N[C@@H](Cc3ccccc3)C(=O)OCc3ccccc3)Oc3cccc(C4CC4)c3)O2)c(=O)n1 (single isomer, unassigned; dia-2) [12 dia-2]", "CC50, nM": 1090}
{"Compound": "CCC[C@H](C)OC(=O)[C@H](C)NP(=O)(OC[C@H]1OC[C@@H](n2ccc(N)nc2=O)O1)Oc1ccc(C2CC2)cc1 (single isomer, unassigned; dia-2) [16 dia-2]", "CC50, nM": 130}
{"Compound": "CCCCCCCCCCCCCCCC(=O)Nc1ccn([C@@H]2CO[C@H](COP(=O)(N[C@@H](C)C(=O)OC(C)C)Oc3ccccc3)O2)c(=O)n1 (single isomer, unassigned; dia-2)", "CC50, nM": 7}
{"Compound": "CCC(CC)COC(=O)[C@H](C)NP(=O)(OC[C@H]1OC[C@@H](n2ccc(N)nc2=O)O1)Oc1ccccc1 (single isomer, unassigned; dia-1) [15 dia-1]", "CC50, nM": 37}
{"Compound": "CC[C@@H](C)OC(=O)[C@H](C)NP(=O)(OC[C@H]1OC[C@@H](n2ccc(N)nc2=O)O1)Oc1ccccc1 (single isomer, unassigned; dia-1) [18 dia-1]", "CC50, nM": 248}
{"Compound": "CCC[C@H](C)OC(=O)[C@H](C)NP(=O)(OC[C@H]1OC[C@@H](n2ccc(N)nc2=O)O1)Oc1ccccc1 (single isomer, unassigned; dia-1) [20 dia-1]", "CC50, nM": 74}
{"Compound": "CCC(CC)OC(=O)[C@H](C)NP(=O)(OC[C@H]1OC[C@@H](n2ccc(N)nc2=O)O1)Oc1ccccc1 (single isomer, unassigned; dia-2) [21 dia-2]", "CC50, nM": 48}
{"Compound": "CCCC(CCC)COC(=O)[C@H](C)NP(=O)(OC[C@H]1OC[C@@H](n2ccc(N)nc2=O)O1)Oc1ccccc1 (single isomer, unassigned; dia-1) [8 dia-1]", "CC50, nM": 7}
{"Compound": "CCCC(CCC)COC(=O)[C@H](C)NP(=O)(OC[C@H]1OC[C@@H](n2ccc(N)nc2=O)O1)Oc1cccc2ccccc12 (single isomer, unassigned; dia-2) [14 dia-2]", "CC50, nM": 12}
{"Compound": "C[C@H](NP(=O)(OC[C@H]1OC[C@@H](n2ccc(N)nc2=O)O1)Oc1cccc2ccccc12)C(=O)OCc1ccccc1 (single isomer, unassigned; dia-1) [9 dia-1]", "CC50, nM": 23}
{"Compound": "C[C@H](NP(=O)(OC[C@H]1OC[C@@H](n2ccc(N)nc2=O)O1)Oc1cccc2ccccc12)C(=O)OC1CCCCC1 (single isomer, unassigned; dia-1) [6 dia-1]", "CC50, nM": 92}
{"Compound": "CCC[C@H](C)OC(=O)[C@H](C)NP(=O)(OC[C@H]1OC[C@@H](n2ccc(N)nc2=O)O1)Oc1ccc(C2CC2)cc1 (single isomer, unassigned; dia-1) [16 dia-1]", "CC50, nM": 151}
